- TARGET OR SYSTEM: Peroxisome proliferator-activated receptor gamma (Homo sapiens)
- ASSAY COMMENT: qHTS assay to identify small molecule agonists of the peroxisome proliferator-activated receptor gamma (PPARg) signaling pathway (AID 743094)
- EXPERIMENTAL SETUP: HEK293H PPARg-UAS-bla, beta-lactamase FRET ratio, 17 h; series mostly up to 57 µM
Records with an inconclusive call do not appear. Activity calls are given as the source filed them. Calls follow the shape of the dose curve; as a rule, active = well fitted activation curve with a large enough effect in the signal ratio in the repeat runs (not every such curve was filed as active); inconclusive = weak or mixed curves, or effect the other way; inactive = no such curve, though single readings can be large or run the other way; the % refers to the signal ratio.
Outcome codes: active, inactive

- MOLECULE: "N[C@@H](Cc1c[nH]c2ccc(O)cc12)C(=O)O"
  CLASS LABEL: "inactive"
- MOLECULE: "CC1=C(/C=C/C(C)=C/C=C/C(C)=C/C(=O)O)C(C)(C)CCC1"
  CLASS LABEL: "active"
- MOLECULE: "O=C(OCc1ccccc1)c1ccccc1"
  CLASS LABEL: "inactive"
- MOLECULE: "O=[N+]([O-])c1ccc(O)cc1"
  CLASS LABEL: "inactive"
- MOLECULE: "O=C1CCCCCN1"
  CLASS LABEL: "inactive"
- MOLECULE: "Nc1ccc(N=Nc2ccccc2)c(N)n1"
  CLASS LABEL: "inactive"
- MOLECULE: "N[C@@H](Cc1c[nH]c2ccccc12)C(=O)O"
  CLASS LABEL: "inactive"
- MOLECULE: "CC(=O)c1ccc(S(=O)(=O)NC(=O)NC2CCCCC2)cc1"
  CLASS LABEL: "inactive"
- MOLECULE: "Nc1cccc(N)c1"
  CLASS LABEL: "inactive"
- MOLECULE: "CN(C)C=O"
  CLASS LABEL: "inactive"
- MOLECULE: "COc1cc(C=O)ccc1O"
  CLASS LABEL: "inactive"
- MOLECULE: "COc1ccccc1NC(=O)CC(C)=O"
  CLASS LABEL: "inactive"
- MOLECULE: "COc1ccc(C(=O)c2ccccc2)c(O)c1"
  CLASS LABEL: "inactive"
- MOLECULE: "C=C(C)C(N)=O"
  CLASS LABEL: "inactive"
- MOLECULE: "CO[C@H]1C=CO[C@@]2(C)Oc3c(C)c(O)c4c(O)c(c(/C=N/N5CCN(C)CC5)c(O)c4c3C2=O)NC(=O)/C(C)=C\\C=C[C@H](C)[C@H](O)[C@@H](C)[C@@H](O)[C@@H](C)[C@H](OC(C)=O)[C@@H]1C"
  CLASS LABEL: "inactive"
- MOLECULE: "CCn1cc(C(=O)O)c(=O)c2ccc(C)nc21"
  CLASS LABEL: "inactive"
- MOLECULE: "CCCCCCCCOc1ccc(C(=O)c2ccccc2)c(O)c1"
  CLASS LABEL: "inactive"
- MOLECULE: "CC(C)(C)NCC(O)c1ccc(O)c(CO)c1 (stereo unspecified)"
  CLASS LABEL: "inactive"
- MOLECULE: "Cc1cnc(NC(=O)C2=C(O)c3ccccc3S(=O)(=O)N2C)s1"
  CLASS LABEL: "inactive"
- MOLECULE: "Cc1cccc2ccccc12"
  CLASS LABEL: "inactive"
- MOLECULE: "C=C(C)OC(C)=O"
  CLASS LABEL: "inactive"
- MOLECULE: "OC[C@@H](O)[C@@H](O)[C@H](O)[C@H](O)CO"
  CLASS LABEL: "inactive"
- MOLECULE: "CC(=O)/C=C/C1=C(C)CCCC1(C)C"
  CLASS LABEL: "inactive"
- MOLECULE: "Oc1cccc(O)c1"
  CLASS LABEL: "inactive"
- MOLECULE: "C[C@]12C[C@H](O)[C@H]3[C@@H](CCC4=CC(=O)CC[C@@]43C)[C@@H]1CC[C@@H]2C(=O)CO"
  CLASS LABEL: "inactive"
- MOLECULE: "CN/C(=C\\[N+](=O)[O-])NCCSCc1ccc(CN(C)C)o1"
  CLASS LABEL: "inactive"
